test: Clearance in rat; format: ADME, organism-based; details: in vivo
assay_endpoint: clearance (mL/min/kg)

CSc1ccc(NC(=O)c2ccc(C(=N)N(C)C)cc2)c(C(=O)Nc2ccc(Cl)cn2)c1 ... 77.1

A = C#Cc1ccc(NC(=O)c2ccc(C(=N)N(C)C)cc2)c(C(=O)Nc2ccc(Cl)cn2)c1
B = CN(C)C(=N)c1ccc(C(=O)Nc2ccc(Cl)cc2C(=O)Nc2ccc(Cl)cn2)c(F)c1
Ask: Return label of the item with the larger clearance. Candidates: A , B . // respond with label for picked entry
Reply: A

---

test: AUC in rat at 6 mg/kg, po; assay type: ADME, organism-based; design: dose 6 mg/kg, route oral; details: plasma
assay_endpoint: AUC (ng·h/mL)

I = CN(C)C(=N)c1ccc(C(=O)Nc2ccc(Cl)cc2C(=O)Nc2ccc(Cl)cn2)cc1
II = CN(C)C(=N)c1ccc(C(=O)Nc2ccc(Cl)cc2C(=O)Nc2ccc(Cl)cn2)c(F)c1
Ask: Return label of the item with the larger AUC. Candidates: I , II . // respond with label for picked entry
Reply: II
(II: 2420 ng·h/mL, I: 885 ng·h/mL)
